Target: recombinant human TFPI (tissue factor pathway inhibitor) (human, UniProt P10646 29-304)
Assay: cell-based or functional assay
Documented A405, TF/FVIIa/FX complex assay, Ab 100 nM across a set of binders

Below are worked cases with known answers.
clone 3203 (antibody, V domains shown) VH: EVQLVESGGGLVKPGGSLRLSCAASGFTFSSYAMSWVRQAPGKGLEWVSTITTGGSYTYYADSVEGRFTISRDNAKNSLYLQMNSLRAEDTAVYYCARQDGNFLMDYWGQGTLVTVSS VL: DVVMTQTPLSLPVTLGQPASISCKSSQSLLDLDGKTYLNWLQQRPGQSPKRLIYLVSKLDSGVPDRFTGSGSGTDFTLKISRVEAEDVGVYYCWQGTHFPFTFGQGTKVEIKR	0.932
clone A67 (antibody, V domains shown) VH: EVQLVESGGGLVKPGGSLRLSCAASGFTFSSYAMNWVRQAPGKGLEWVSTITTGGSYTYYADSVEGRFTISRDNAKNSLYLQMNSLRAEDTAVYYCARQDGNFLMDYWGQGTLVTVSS VL: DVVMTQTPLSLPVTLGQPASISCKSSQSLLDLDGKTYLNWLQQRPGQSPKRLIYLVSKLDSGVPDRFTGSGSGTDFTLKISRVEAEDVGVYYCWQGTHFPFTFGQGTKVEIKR	0.947
clone 1023 (antibody, V domains shown, scFv on yeast at selection; human IgG4/kappa IgG as purified) VH: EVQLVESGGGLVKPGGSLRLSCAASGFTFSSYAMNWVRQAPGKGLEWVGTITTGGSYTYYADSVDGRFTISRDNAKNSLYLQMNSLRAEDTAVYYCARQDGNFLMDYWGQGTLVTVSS VL: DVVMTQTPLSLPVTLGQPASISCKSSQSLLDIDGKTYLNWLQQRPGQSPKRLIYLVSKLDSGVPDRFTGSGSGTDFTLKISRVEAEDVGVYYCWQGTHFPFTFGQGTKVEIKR	0.939

Consider the record given below.
query: Value lookup for A405, TF/FVIIa/FX complex assay, Ab 100 nM; key = clone 3241 (antibody, V domains shown, scFv on yeast at selection; human IgG4/kappa IgG as purified; also called No. 3241 antibody) VH: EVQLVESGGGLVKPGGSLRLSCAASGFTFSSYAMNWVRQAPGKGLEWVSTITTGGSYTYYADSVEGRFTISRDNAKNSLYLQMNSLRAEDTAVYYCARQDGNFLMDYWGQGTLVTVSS VL: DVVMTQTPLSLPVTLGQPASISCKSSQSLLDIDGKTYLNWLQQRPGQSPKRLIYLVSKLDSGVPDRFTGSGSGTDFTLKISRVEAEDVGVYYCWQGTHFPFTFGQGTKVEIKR
result: 0.937
